Molecular target: Gal3S6S(b1-4)GlcNAc6S
Test: glycan array binding signal (z-score within array); higher = stronger binding
Settings: glycan notation: IUPAC condensed, linker removed
Many of the other results were omitted from the sample, so the strongest signals are more common in it than they were.
Parameter measured: glycan array binding signal (z-score)

>>> measured_value("StdA (Salmonella typhimurium), Q8Z3Z0 (protein) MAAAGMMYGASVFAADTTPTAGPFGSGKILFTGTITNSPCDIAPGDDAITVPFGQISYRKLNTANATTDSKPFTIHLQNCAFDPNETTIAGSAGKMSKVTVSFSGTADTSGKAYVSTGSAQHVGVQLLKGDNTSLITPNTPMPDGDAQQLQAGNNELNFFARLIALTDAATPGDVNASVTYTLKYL")
-0.494
>>> measured_value("AFL (Aspergillus fumigatus), Q4WW81 (protein) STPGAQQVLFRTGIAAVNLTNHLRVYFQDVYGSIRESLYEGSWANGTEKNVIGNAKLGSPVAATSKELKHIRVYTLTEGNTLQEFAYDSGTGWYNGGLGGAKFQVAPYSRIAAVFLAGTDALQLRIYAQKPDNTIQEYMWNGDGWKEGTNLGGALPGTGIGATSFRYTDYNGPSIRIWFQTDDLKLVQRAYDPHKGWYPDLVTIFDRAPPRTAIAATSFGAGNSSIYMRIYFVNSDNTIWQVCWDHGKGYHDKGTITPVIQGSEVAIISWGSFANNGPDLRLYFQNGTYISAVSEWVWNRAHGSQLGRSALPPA")
-0.381
>>> measured_value("FedF (Escherichia coli), Q47212 (protein) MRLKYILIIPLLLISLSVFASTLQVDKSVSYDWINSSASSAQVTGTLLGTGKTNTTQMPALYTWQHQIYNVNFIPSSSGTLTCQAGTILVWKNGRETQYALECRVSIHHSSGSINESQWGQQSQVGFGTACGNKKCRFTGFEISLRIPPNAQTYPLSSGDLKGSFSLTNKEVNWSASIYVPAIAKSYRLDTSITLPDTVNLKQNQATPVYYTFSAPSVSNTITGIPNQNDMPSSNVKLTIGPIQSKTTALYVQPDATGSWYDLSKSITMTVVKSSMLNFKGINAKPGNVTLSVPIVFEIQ")
1.97
>>> measured_value("SJCP1531 (Schistosoma japonicum) (protein) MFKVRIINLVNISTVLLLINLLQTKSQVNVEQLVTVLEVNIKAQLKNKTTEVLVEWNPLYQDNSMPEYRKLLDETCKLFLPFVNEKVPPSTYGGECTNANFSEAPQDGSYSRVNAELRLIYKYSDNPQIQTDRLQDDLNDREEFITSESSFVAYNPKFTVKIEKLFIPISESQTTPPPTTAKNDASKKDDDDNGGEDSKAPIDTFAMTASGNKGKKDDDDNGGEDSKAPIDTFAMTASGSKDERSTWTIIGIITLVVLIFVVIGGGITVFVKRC")
3.17
